assay: ATG_PPRE_CIS: Attagene CIS-FACTORIAL HepG2 Assay for human Peroxisome Proliferator-activated Response Element (PPRE) (AID 2282958); details: HepG2 PPRE cis-element reporter, Attagene transcription factor profiling; actives raise or lower the signal
The source made the active and inactive calls. How the source made its calls: active means hit-call score of the fitted dose curve at least 0.9, where 1 is the maximum; inactive means score below 0.9.
A correct response names exactly one class from T for active, F for inactive

* C#C[C@]1(O)CC[C@H]2[C@@H]3CCC4=CC(=O)CC[C@]4(C)[C@H]3CC[C@@]21C | F
* Brc1ccc(Br)cc1 | F
* FC(F)OCC(F)(F)C(F)(F)F | F
* CCOC(=O)OC1=C(c2cc(C)ccc2C)C(=O)NC12CCC(OC)CC2 (configuration not stated) | F
* Oc1ccc(Cc2ccc(O)cc2)cc1 | T
* COCCl | F

Now for another entry.
Given BrCC(Br)c1ccccc1 (configuration not stated) , state the outcome it received in this test.
F
